Each entry below lists one item and its recorded melting point value.

Below, 6 compounds whose answers are already recorded.
CCOc1cc2c(cc1OC)OC(C)(C)CC2=O
86 to 87 °C
O=C(c1ccccc1)c1cnc2c(cnn2Cc2ccco2)c1O
102 °C
COc1cc(-c2cccs2)c(OC)c2c(OC)cc(-c3cccs3)c(OC)c12
234 to 237 °C
CC(=O)c1nnc2n1-c1sc(Cl)cc1C(c1ccccc1Cl)=NC2
89 to 91 °C
COC(=O)c1cc(-c2nc(COc3ccc(COc4nn(-c5ccccc5)cc4C=O)cc3OC)c(C)o2)ccc1OS(C)(=O)=O
136 to 137 °C
O=C(COc1cc(-c2ccccc2)nc2cccc(Cl)c12)N1CCOCC1
168 °C

Measured melting point of COc1ccc(Cn2ncc3c4c(cnc32)CN(C(=O)Nc2ccccc2)CC4)cc1 : > 65 °C

Measured melting point of CS(=O)(=O)c1nccc(Oc2ccccc2)n1 : 113 to 116 °C

Measured melting point of CC(=O)C(=Cc1cccc([N+](=O)[O-])c1)C(C)=O : 92 to 95 °C

Measured melting point of Cc1cc(F)ccc1-c1nc(N[C@@H](C)CO)nc2c1ccc(=O)n2-c1c(F)cccc1F : 90 to 95 °C

Measured melting point of CC(=O)NCC1CN(c2ccc(N(C)C=O)c(F)c2)C(=O)O1 (stereo not given) : 116 to 117 °C
